- test system: Histone-lysine N-methyltransferase SETD7 (Homo sapiens)
- method description: Inhibition of human SET7 overexpressed in Escherichia coli BL21 (DE3) cells at 50 uM preincubated for 15 mins followed by addition of SAM as substrate and biotinylated Histone H3 (1-50) peptide measured after 30 mins by AlphaLISA assay relative to control
Label no if inhibition falls below 20%; label yes in every other case.

>>> group_label("O=C(N/N=C/c1ccc([N+](=O)[O-])o1)c1ccc(O)cc1")
"no"
>>> group_label("CC(C)C[C@H](NC(=O)[C@H](Cc1ccccc1)NC(=O)c1cnccn1)B(O)O")
"yes"
>>> group_label("CCn1cc(C(=O)O)c(=O)c2cc(F)c(N3CCNC(C)C3)c(F)c21 (stereo not given)")
"no"
>>> group_label("COC(=O)[C@H](Cc1ccccc1)NC(=O)[C@@H](N)CC(=O)O")
"no"
>>> group_label("COc1cc(O)c(CC=C(C)C)c(O)c1C(=O)/C=C/c1ccc(O)cc1")
"no"
>>> group_label("O=c1c(-c2ccc(O)cc2)coc2cc(O)ccc12")
"no"
>>> group_label("Cc1cnc(NC(=O)C2=C(O)c3ccccc3S(=O)(=O)N2C)s1")
"yes"
>>> group_label("O=C(Nc1c(Cl)cncc1Cl)c1ccc(OC(F)F)c(OCC2CC2)c1")
"yes"
>>> group_label("Cc1cc([N+](=O)[O-])ccc1NS(=O)(=O)c1cc(Cl)ccc1Cl")
"yes"

Attention now shifts to the item below.
Problem: Hi team, for CC(C)=CC[C@@H](O)C1=CC(=O)c2c(O)ccc(O)c2C1=O , is the recorded inhibition at or above 20%?
Result: yes

These entries and their values trace back to ChEMBL document CHEMBL4627299.
